Tested on: OVCAR-4 ovarian
protocol: NCI tumour cell line growth inhibition, 48 h; in the data active = GI50 below about 0.43 µM; inactive = the rest
Response enum: Yes = active, No = inactive

compound: CN(C)CC1CCC2=C(C1=O)C(c1ccc(Cl)c(Cl)c1)C1=C(CCC(CN(C)C)C1=O)O2 (centres undefined)
qualitative_label: No
//
compound: O1[As]2O[As]3O[As]1O[As](O2)O3
qualitative_label: No
//
compound: Nc1ccccc1C#C/C=C\C#Cc1cccc(O)c1
qualitative_label: No
//
compound: O=C1NOC(c2ccc(O)cc2)(c2ccc(O)cc2)c2ccccc21
qualitative_label: No

How was `Cc1[nH]c2ccc(F)cc2c1-c1nc2c3cccnc3c3ncccc3c2[nH]1` classified in this test? Yes

Recorded test call requested for `Cc1ccc(C(=O)NC2CCC2)cc1-c1ccc(C(=O)NCC2CC2)cc1` No

GET /call?item= `C[C@]12CC[C@@H]3c4ccc(O)cc4CC[C@H]3[C@@H]1Cc1cnc(N)nc12` returns the recorded outcome of this test. No

Please let me know the test result on file for `Cn1cccc1-c1cc(-c2ccc(Br)cc2)[nH]c(=O)c1C#N` . No

Assay outcome for `CCSc1nc(SCC)c2c(-c3ccc(OC)c(OC)c3)c(C#N)c(SCC)nc2n1` : what was it? No

---

Test system: SNB-75 CNS
protocol: NCI tumour cell line growth inhibition, 48 h
readout_kind: TGI (µM)
// return numeric value only (unit: µM, not printed)

Consider the reported TGI for these molecules:
molecule: N#CSCc1ccc(Cl)c(CSC#N)c1
TGI (µM): 59.9
//
molecule: COC(=O)/C=C1/OC(c2ccc(OC)cc2)=C(Cl)C1=O
TGI (µM): 37.3
//
molecule: O=c1cc(-c2cccnc2)[nH]c2cc3c(cc12)OCO3
TGI (µM): 27.1
//
molecule: O=C1CC(NCc2ccccc2)c2c(Cl)sc(Cl)c21 (configuration not stated)
TGI (µM): 80.6

Tell me measured TGI for `CCOc1ccc(N/C(=C(/C(Cl)=C(/Cl)NC(C)(C)C)[N+](=O)[O-])n2nnc3ccccc32)cc1` please. 54

---

System: SNB-19 CNS
protocol: NCI tumour cell line growth inhibition, 48 h
readout_kind: TGI

Would you please look over these solved cases?
chem_smiles: COC(=O)c1cc2ccccc2c2c3c(ccc12)OCO3
assay_target: SNB-19 CNS
TGI: 990 µM

chem_smiles: CC(=O)N(C(C)=O)c1cc2c3c(c1)CCCN3CCC2
assay_target: SNB-19 CNS
TGI: > 10 µM

Name the recorded TGI of the compound listed here: `COc1ccc(/C=C(\C(=O)NCc2cccnc2)S(=O)(=O)c2ccccc2)cc1OC` 13.1 µM

Report measured TGI; entry is `C[CH2][Sn]([CH2]C)([O]C(=O)c1ccccc1F)[O][Sn]([CH2]C)([CH2]C)[O]C(=O)c1ccccc1F` > 57.6 µM

State its TGI: `C=C1c2ccoc2C[C@H]2[C@H]1CC[C@@]1(O)[C@@](C)(C(=O)OC)CCC[C@]21C` > 100 µM

---

Tested on: OVCAR-3 ovarian
protocol: NCI tumour cell line growth inhibition, 48 h
Is TGI at least 30 µM? Then MET. If not, NOT MET.

For orientation, consider the following solved cases.
compound: O=C1C(SCCO)=C(SCCO)C(=O)N1c1ccc(-c2ccccc2)cc1
assay_target: OVCAR-3 ovarian
qualitative_label: NOT MET
--
compound: CCOC(=O)NN(C(=O)OCC)c1c(C)cc(C)cc1C
assay_target: OVCAR-3 ovarian
qualitative_label: MET
--
compound: Cc1ccc2c(=O)c3ccccc3sc2c1
assay_target: OVCAR-3 ovarian
qualitative_label: MET
--
compound: O=CN1CCN(C(=O)c2ccc(Cl)c(Cl)c2)C1=S
assay_target: OVCAR-3 ovarian
qualitative_label: NOT MET

Reported TGI at or above 30 µM? `N#CSCc1ccc(Cl)c(CSC#N)c1` NOT MET

I'd appreciate it if you could say whether `O=c1oc2c(Cl)cc(Cl)cc2cc1C1=CSC2=NCCN12` has TGI at least equal to 30 µM. MET

# check: TGI of CC(=O)OC(Cc1c(O)c2c(C)cccc2oc1=O)C(C)(C)O (stereo unspecified) is greater than or equal to 30 µM MET

Reported TGI reaches at least 30 µM for `COc1ccc(N(/C=C/C(=O)C(F)(F)F)CC(=O)c2ccc(F)cc2)cc1` ? MET

Could you tell me if the measured TGI of `CCCN(CCC)C(=O)C(=O)c1c(N)[nH]n(-c2ccccc2)c1=O` reaches 30 µM or more? MET

Quick check: does `COC(=O)c1cc2ccccc2c2c3c(ccc12)OCO3` have TGI greater than or equal to 30 µM? MET

Reported TGI at or above 30 µM? `O=[N+]([O-])c1cc(Cl)cnc1Br` NOT MET

---

Test system: HL-60(TB) leukemia
protocol: NCI tumour cell line growth inhibition, 48 h
readout_kind: TGI

molecule: COc1cnc2c(c1)C(=O)c1c-2n(CCCNC2=NCCS2)c(=O)c2cc(Cl)ccc12
reported_measurement: 3.39 µM

molecule: CC(C)(c1ccccc1)c1ccc(Oc2ccc(C#N)c(C#N)c2)cc1
reported_measurement: > 100 µM

molecule: BrCC[N+]12CC[N+](CCBr)(CC1)C2
reported_measurement: > 100 µM

molecule: CNC1(C(=O)O)CC1
reported_measurement: > 100 µM

molecule: COc1ccccc1CNCCCN1C(=O)c2ccc3c4c(ccc(c24)C1=O)C(=O)N(CCCN)C3=O
reported_measurement: 2.54 µM

Fill in TGI for record `CN(Cc1cnc2c(N)nc(N)nc2n1)c1ccc(Cl)cc1` > 100 µM

Look up and state reported TGI for COc1cccc(NC(=O)CC(=O)N2N=C(n3ccc4ccccc43)CC2c2ccccc2)c1 (stereo not given) > 100 µM

---

Test system: RXF-631 renal
protocol: NCI tumour cell line growth inhibition, 48 h
readout_kind: TGI (µM)
Only the number, expressed in µM, is required.

molecule: CCCCCCCCC/C=C1\CCC(CN(C)C)C1=O (stereo not given)
unit_spec: µM
TGI: 4.53

Please turn your attention to the following entry.
Report TGI, nothing else, for this molecule: `CCc1cccc(C)c1NC(=O)C1=C(C)NC(C)=C(C(=O)Nc2c(C)cccc2CC)C1c1ccc2c(c1)OCO2` 54

---

Test system: NCI-H460 lung
readout_kind: GI50

Solved entries:
compound: COc1cccc(-c2cc3c4c(nc5ccccc53)C(=O)c3cccnc3-c4n2)c1
reported_measurement: 1.07 µM

compound: NCCN.O=C([O-])CN1CCOCC1.[OH-].[Pt+4]
reported_measurement: 37.5 µM

Now for the compound whose GI50 we want.
Kindly indicate its recorded GI50. Item: CC(C)(C)c1[nH]nc2c1C(c1cc3ccccc3[nH]c1=O)Nc1cc(C(=O)OCc3ccccc3)ccc1N2 (stereo not drawn) 3.14 µM

---

Catalogue of TGI values
Tested on: TK-10 renal
protocol: NCI tumour cell line growth inhibition, 48 h

compound: COc1cc(OC)c2[nH]c3c(O)c(-c4c(C)cc5c([nH]c6c(OC)cc(OC)cc65)c4O)c(C)cc3c2c1
TGI: 17.9 µM

compound: O=CN1CCN(C(=O)c2ccc(Cl)c(Cl)c2)C1=S
TGI: 30.1 µM

compound: CCOC(=O)c1c(NC(=S)Nc2ccccc2)sc2c1CCOC2
TGI: > 100 µM

compound: Nc1ccccc1C#C/C=C\C#Cc1cccc(O)c1
TGI: 29.7 µM

compound: OC1CSc2nc3ccccc3n2C1 (configuration not stated)
TGI: > 100 µM

compound: Cc1nn(-c2ccc([N+](=O)[O-])cc2)c2ncnc(N/N=C/c3ccccc3O)c12
TGI: 7.78 µM

Please examine the following record next.
Note down TGI recorded for COc1cc2c(cc1OC)[C@@H](Nc1ccc(F)cc1)C1COC(=O)[C@@H]1C2c1cc(OC)c(O)c(OC)c1 (some centres not stated) 63 µM

---

Tested on: 786-0 renal
protocol: NCI tumour cell line growth inhibition, 48 h
readout_kind: TGI (µM)
Report the value in µM with no unit label.

Record excerpt, results attached:
compound: COC(=O)C1=C(C)NC(C)=C(C(=O)OCC(C)C)C1c1ccccc1[N+](=O)[O-] (stereo not given)
assay_target: 786-0 renal
TGI, µM: 12.6

compound: NS(=O)(=O)c1ccc(/C=C/c2ccc(O)cc2)cc1
assay_target: 786-0 renal
TGI, µM: 89.6

Please list TGI recorded for the compound `Cc1ccc(N/C(SCc2ccccc2)=C(\C(Cl)=C(Cl)Cl)[N+](=O)[O-])c(C)c1` 54.3

---

Below: a set of entries, each annotated with reported log10 of TGI.
Tested on: RXF 393 renal
protocol: NCI tumour cell line growth inhibition, 48 h
Values reflect log10 of reported TGI (µM).

compound: COC(=O)/C=C1/OC(c2ccc(OC)cc2)=C(Cl)C1=O
assay_target: RXF 393 renal
readout_kind: log10 of TGI
reported_measurement: 1.50
//
compound: O=C(O)c1nc(-c2ccc(Cl)c(Cl)c2)nc2ccc(Cl)cc12
assay_target: RXF 393 renal
readout_kind: log10 of TGI
reported_measurement: 1.84
//
compound: COC(=O)c1cc2ccccc2c2c3c(ccc12)OCO3
assay_target: RXF 393 renal
readout_kind: log10 of TGI
reported_measurement: 1.95
//
compound: Cc1cnc(CNC(=O)c2c(=O)c3ccc(N4CCCN(C)CC4)nc3n3c2sc2ccccc23)cn1
assay_target: RXF 393 renal
readout_kind: log10 of TGI
reported_measurement: 1.28

Query log10 of TGI for CCOC(=O)C1CCCCN1C(=O)c1ccc(Nc2cnc3cc(C(F)(F)F)ccc3n2)cc1 (centres undefined) 0.93

Identify measured log10 of TGI corresponding to `O=C1C(SCCO)=C(SCCO)C(=O)N1c1ccc(-c2ccccc2)cc1` 0.44

Give the measured log10 of TGI for CC(Oc1ccc(OCC2CCCCC2)cc1)C(=O)NCc1ccco1 (centres undefined) 1.85

Quick one: give measured log10 of TGI for CN(C)CC1CCC2=C(C1=O)C(c1ccc(Cl)c(Cl)c1)C1=C(CCC(CN(C)C)C1=O)O2 (centres undefined) 1.35

Answer with the recorded log10 of TGI of `O=[N+]([O-])c1ccc(NNN=Nc2ccc(-c3nc4ccccc4s3)cc2)c([N+](=O)[O-])c1` only. 1.70

Return log10 of TGI (reported value) for this compound: `Cn1cc(-c2csc(-c3cn(CCCN4CCCCC4)c4ccccc34)n2)c2cccnc21` 0.50

Report log10 of TGI for `ON=C(CC(O)(C(F)(F)Cl)C(F)(F)Cl)CC(O)(C(F)(F)Cl)C(F)(F)Cl` 0.89
